- Method Description: Cation titration followed by absorbance or fluorescence excitation spectra: Na⁺ binding
- Test Context: 0.1 M tetramethylammonium chloride, 1-5 mM tris(hydroxymethyl)aminomethane, pH high enough for protonation to be insignificant, 22°; read-out: Dissociation constants (Kd) in mM for Na⁺
Classify: true (1) when Kd is strictly less than 8 mM; false (0) when Kd is not.

Input Smiles: COc1cc2cc(-c3ccc(C(=O)O)c(C(=O)O)c3)oc2cc1N1CCOCCOCCN(c2cc3oc(-c4ccc(C(=O)O)c(C(=O)O)c4)cc3cc2OC)CCOCC1
Class: false (0)
--
Input Smiles: O=C(O)CCC(=O)Nc1ccc(N2CCOCCOCCN(c3ccc(NC(=O)CCC(=O)O)c4cc5ccccc5nc34)CCOCC2)c2nc3ccccc3cc12
Class: true (1)
--
Input Smiles: Cc1ccc2cc(O)cc(N3CCOCCOCCN(c4cc(O)cc5ccc(C)nc45)CCOCC3)c2n1
Class: false (0)
--
Input Smiles: COc1cc2cc(-c3ccc(C(=O)O)cc3C(=O)O)oc2cc1N1CCOCCOCCN(c2cc3oc(-c4ccc(C(=O)O)cc4C(=O)O)cc3cc2OC)CCOCC1
Class: true (1)
--
Input Smiles: COc1cc2cc(-c3ncc(C(=O)O)o3)oc2cc1N1CCOCCOCCN(c2cc3oc(-c4ncc(C(=O)O)o4)cc3cc2OC)CCOCC1
Class: false (0)

====

- Method Description: Cation titration followed by absorbance or fluorescence excitation spectra: Na⁺ binding
- Test Context: 0.1 M tetramethylammonium chloride, 1-5 mM tris(hydroxymethyl)aminomethane, pH high enough for protonation to be insignificant, 22°; read-out: Dissociation constants (Kd) in mM for Na⁺

Molecule: COc1cc(NC(C)=O)ccc1N1CCOCCOCCN(c2ccc(NC(C)=O)cc2OC)CCOCC1 [Compound 2JJ]
Units Text: mM
Kd: 12

Molecule: Nc1ccc(N2CCOCCOCCOCCOCC2)c(C(=O)O)c1 [Compound 1B]
Units Text: mM
Kd: 71

Molecule: COc1cc2cc(-c3ccc(C(=O)O)cc3C(=O)O)oc2cc1N1CCOCCOCCN(c2cc3oc(-c4ccc(C(=O)O)cc4C(=O)O)cc3cc2OC)CCOCCOCC1 [Compound 3PP]
Units Text: mM
Kd: 21

Molecule: CC(=O)Nc1ccc(N2CCOCCOCCN(c3ccc(NC(C)=O)c4cccnc34)CCOCC2)c2ncccc12 [Compound 2CC]
Units Text: mM
Kd: 5.3

Molecule: CC(=O)Nc1ccc(N2CCOCCOCCN(c3ccc(NC(C)=O)c4ccc(C)nc34)CCOCC2)c2nc(C)ccc12 [Compound 2DD]
Units Text: mM
Kd: 9.4

Molecule: CC(=O)Nc1ccc(N2CCOCCOCCOCCOCC2)c2ncccc12 [Compound 1C]
Units Text: mM
Kd: 67

Molecule: Cc1ccc2c(n1)c(N1CCOCCOCCN(c3cc4oc(-c5ccc(C(=O)O)c(C(=O)O)c5)cc4c4ccc(C)nc34)CCOCC1)cc1oc(-c3ccc(C(=O)O)c(C(=O)O)c3)cc12 [Compound 2GG]
Units Text: mM
Kd: 4.7

====

- Method Description: UV absorbance spectra without and with saturating cation
- Format: physicochemical
- Test Context: number is 10⁻³ x the extinction coefficient; lower limits; saturating NaCl (0.2-1 M)
Overview of reported Absorbance maxima +Na⁺ (extinction coefficient) across a group of compounds:
Quantity Kind: Absorbance maxima +Na⁺ (extinction coefficient) (M⁻¹ cm⁻¹)

Input Smiles: COc1ccc(OC)c(N2CCOCCOCCN(c3cc(OC)ccc3OC)CCOCC2)c1
Reported Result: 4000

Input Smiles: Cc1ccc2cc(O)cc(N3CCOCCOCCN(c4cc(O)cc5ccc(C)nc45)CCOCC3)c2n1
Reported Result: 2300

Input Smiles: Nc1ccc(N2CCOCCOCCOCCOCC2)c(C(=O)O)c1
Reported Result: 1100

Input Smiles: COc1cc2cc(-c3ccc(C(=O)O)c(C(=O)O)c3)oc2cc1N1CCOCCOCCN(c2cc3oc(-c4ccc(C(=O)O)c(C(=O)O)c4)cc3cc2OC)CCOCC1
Reported Result: 51600

Input Smiles: COc1cc2cc(-c3ccc(C(=O)O)cc3C(=O)O)oc2cc1N1CCOCCOCCN(c2cc3oc(-c4ccc(C(=O)O)cc4C(=O)O)cc3cc2OC)CCOCC1
Reported Result: 47000

Input Smiles: COc1cc2cc(-c3ncc(C(=O)O)o3)oc2cc1N1CCOCCOCCN(c2cc3oc(-c4ncc(C(=O)O)o4)cc3cc2OC)CCOCC1
Reported Result: 27000
